Data credit: the RNAGym collection of RNA variant scans (doi:10.7554/elife.80360)

B1: CPEB3 Ribozyme (parent)
chain: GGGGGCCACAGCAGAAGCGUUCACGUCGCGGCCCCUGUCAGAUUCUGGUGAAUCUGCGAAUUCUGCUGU

# Variants of: B1
# measurementProtocol: self-cleavage, relative activity (ratio to wild type); higher = more cleavage; co-transcriptional

variantNotation: G11A C12G
self-cleavage: 0.788

variantNotation: A13U A52G
self-cleavage: 0.902

variantNotation: G25C G37C
self-cleavage: 0.156

variantNotation: U21G C32A
self-cleavage: 0.246

variantNotation: A15U A40C
self-cleavage: 0.287

variantNotation: G2C U49G
self-cleavage: 0.0393

variantNotation: G41U U69G
self-cleavage: 1.02

variantNotation: U38C G58A
self-cleavage: 0.895

variantNotation: U20G G50A
self-cleavage: 0.206

variantNotation: G41U U43G
self-cleavage: 0.267

variantNotation: C57A G65A
self-cleavage: 0.346

variantNotation: G47C A60U
self-cleavage: 0.562

variantNotation: A23C C57G
self-cleavage: 0.412

variantNotation: G41C U43G
self-cleavage: 0.25

variantNotation: A8C A23C
self-cleavage: 0.907

variantNotation: G1A U55C
self-cleavage: 0.0976

variantNotation: C29U A60G
self-cleavage: 0.345

variantNotation: C39G A59U
self-cleavage: 0.587

variantNotation: U38G U67A
self-cleavage: 0.295

variantNotation: C35A G41U
self-cleavage: 0.277

variantNotation: C24A G68U
self-cleavage: 0.834

variantNotation: C7A C66G
self-cleavage: 0.42

variantNotation: A8C A40G
self-cleavage: 0.958

variantNotation: A13U U69G
self-cleavage: 0.961

variantNotation: G19C G65A
self-cleavage: 0.127

variantNotation: U20C G68A
self-cleavage: 0.336

variantNotation: C33U G50A
self-cleavage: 0.979

variantNotation: G37U G47U
self-cleavage: 0.365

variantNotation: C22G C66G
self-cleavage: 0.182

variantNotation: A13G C18G
self-cleavage: 0.169

variantNotation: U38G U55G
self-cleavage: 0.283

variantNotation: A13G U36A
self-cleavage: 0.222

variantNotation: G14C G30A
self-cleavage: 0.255

variantNotation: C29U C45U
self-cleavage: 0.505
